List of cytotoxicity at 10 µM values.
EXPERIMENT SUMMARY: Toxicity liver stage against HepG2, at 10uM
Assay type: cell-based
Set-up: test concentration 10 uM, cell line HepG2-A16-CD81EGFP
TEST CONTEXT: human, HepG2-A16-CD81EGFP cells; read-out: INHIBITION
Report as a plain number; the unit % is understood.

Reference set, count: 3
molecule=Cc1ccccc1[C@@H]1CN(C(=O)c2ccc3[nH]nnc3c2)C[C@H]1C(=O)O measurement=-7.21
molecule="CN(C)C(=O)N1CCO[C@@H]2CC(COCc3cccnc3)C[C@H]21 (some centres undefined)" measurement=8.61
molecule=CCCc1cc(C(=O)N2C[C@H]3CC=C(C)C[C@H]3C2)ccn1 measurement=0.782

Let us examine a further case.
Lab book: cytotoxicity at 10 µM of O=C(Nc1ccc(Cl)cn1)c1nn(C2CCS(=O)(=O)C2)c2c1CCCC2 (centres undefined) noted as 1.61

---

EXPERIMENT SUMMARY: Toxicity liver stage against HepG2, at 10uM
Format: cell-based
Design: test concentration 10 uM, cell line HepG2-A16-CD81EGFP
TEST CONTEXT: human, HepG2-A16-CD81EGFP cells; read-out: INHIBITION
REPORTED PROPERTY: cytotoxicity at 10 µM (%)
Report as a plain number; the unit % is understood.

Reference set, count: 8
molecular_string=O[C@@H]1C[C@@H](c2nc(-c3ccccc3)no2)N(CC2CCCCC2)C1 measurement=-2.74
molecular_string=Cc1ccccc1SCC(=O)NS(=O)(=O)c1ccc2c(c1)OCCO2 measurement=-1.22
molecular_string=CCOc1ccc(N(C)Cc2nnc(C)o2)cc1 measurement=9.46
molecular_string=Cc1cccc(CCC(=O)Nc2cccnc2N2CCC(O)CC2)c1 measurement=-2.25
molecular_string=COC[C@]12COC[C@H]1CN(S(=O)(=O)c1cccnc1)C2 measurement=-0.975
molecular_string=O=C(c1ccno1)N1CCO[C@]2(CCC[C@@H]2COCc2ccncc2)C1 measurement=10.2
molecular_string=CS(=O)(=O)Cc1ccc(C(=O)Nc2ccc3c(c2)C(=O)NC3)cc1 measurement=10.8
molecular_string=CO[C@@H]1CCN(c2ncccn2)[C@H]1Cc1ccccc1 measurement=-0.651

Lab book: cytotoxicity at 10 µM of COCc1nc(C(=O)NS(=O)(=O)c2ccc(C)cc2C)cs1 noted as -4.35

Lab book: cytotoxicity at 10 µM of Cc1cc(C(=O)Nc2nc3c(s2)CN(S(=O)(=O)C2CC2)CC3)c(C)o1 noted as 22.7

Lab book: cytotoxicity at 10 µM of Cc1nc(C(C)(C)NCc2ncc(C(C)C)o2)sc1C noted as 6.32

---

List of cytotoxicity at 10 µM values.
EXPERIMENT SUMMARY: Toxicity liver stage against HepG2, at 10uM
Format: cell-based
Parameters: test concentration 10 uM, cell line HepG2-A16-CD81EGFP
TEST CONTEXT: human, HepG2-A16-CD81EGFP cells; read-out: INHIBITION
Report as a plain number; the unit % is understood.

compound=Cc1noc(C)c1CCC(=O)N1CCCN(CC(N)=O)CC1 reported_property="cytotoxicity at 10 µM" unit_label=% measurement=-12.4
compound=O=C(NCCNC(=O)c1scnc1Cl)c1cccs1 reported_property="cytotoxicity at 10 µM" unit_label=% measurement=-9.44
compound=CC(C)(C)c1cc(C[C@H]2CNCC[C@H]2CC(=O)NCc2cccs2)no1 reported_property="cytotoxicity at 10 µM" unit_label=% measurement=-2.28

Lab book: cytotoxicity at 10 µM of CNS(=O)(=O)c1cccc(C(C)NCc2ccc(F)cc2F)c1 (centres undefined) noted as 12.8

Each recorded value in this set is attributed to ChEMBL document CHEMBL4513216.
